- ASSAY_OVERVIEW: protease stability score; higher = more stable; yeast display proteolysis, trypsin and chymotrypsin;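 note: log10 excess protease needed over predicted unfolded state with 0 meaning unfolded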
Would you kindly list protease stability score for each of these sequences?

Would you please look over these solved cases?
DTENVKKATDYVHALNTGDEHRVKELMDPNARIRYGDKEVKGHDEIAKTLKTERDQSRVEFDIKRVEHQGNKVSIDLNFRKNQNGQPRSTKVNITVVFHNGKIKEINIQTDG
1.59
DEEDMDEVEKAIRKNDPEKMRDLADENAKASVGDNQFHGRDNVENFMKHLTDHADHVQVDSVEKHNGRVVVNAQLDINGEQIQIVIRIDVHNGKIKRFSIEVRDEEAHHFMREMVS
0.895
DEEAAKHVNRMLEKGDEKKIAQHVDKDARAHVGNQELHGREDIIRAVTRFRQQADHMRVDSYEVQGDRIEVTFEVVVNGHKMQLKATIRVDNGRIKHNKIQARSEEQTKQMQKLLD
-0.171
DDDHLRKVEDFMRAQLEGDPDRLKQLADPNVRMNVGEKKVHGMQDIATEQASTYKTARYEIKSLDSKTEGDKVVITMRVQADNNGQPHDETFHLKARLENGKIVEQSKENDG
-0.529
DEDDNRKMHKLMETGDFEKIAHHADPNAHAKYGDKTVTGKEELKSVFTKFNRAVDHVQVQDVRIRGDKVTLDAEVNVNGQTVQVTVSARAHNGQIKHFKIQARDEQIQRDIKDALE
0.845
DEKMLQHMEDALRRNDEQRLVELVDEDVKIKIGDRDVHGSERAQKIAETRKERIDSQDFKSMDLSGNKVTVDRVVVVNGVKFRVVVIYELSNGRIKRIEVRVTDEENKRRLQKQLS
0.63
EEEKVKKVVKKLFEAVQKGDKKKLQELLHEDVEFQFGVKRVKGAEQYMRTVDELRQRGVQIEVKKYQVKDDKARMVTVVRYGDKTVTMTAEAEYEGGVLKRARVELTDEAKELVKKG
0.41
DDERVQEQAKDFLKVVKEGNEEDLTKLFDPNASARYGDKTYHGREKVATAVAELAKKVDHFRVEHVEASGNKLHIDAYFQVNGNRRRIRFFIEIRNGKINTVIITSG
1.62
DNDAREAARRLLDAWRTGDEDTVRDMADENAKVTVGDKTIQGRDHLVDWIHQHYHEQRVDVKSVHMDAQGDKVDVKLDAVSDRNGQPRRYVEHVKITMKNGKMKSLEMHREG
0.753
DETARHRLEEMWTNIQRNNPSEVAKLADKDVRVRVGDKEIHGREQLNHHIKRFNDEIRMNVDHISIKVDGNEADIHIRAEFEVNGTPFEMTIDVKISVHNGKIKEIDRQVSEEEKRRLKK
0.806

Go through the items and report each one's protease stability score.
1. DEEVADNFRKLLHNLEQGDKRRVKEMVDENAHIVVGDKVYHGWETAAQDLVRLMHEIHFTITSVHVEVSNGRVRLKVHMKINVNGKPFRMVFTQEIEAENGTVKYINVQFDPEVLRRIES
2. EEELKKVWTEMQDALENGNEEKIEENFDPNAHFQIGDTHIHGMHEWAHQQFREMKDIRVQVEIESVTFSGDKVNVEYSFTLEIDGRPQSNTATMSARVHNGHFKSVSIRIDPKELKDRQK
3. DEHIQKQFQKILEAINQNNPEQFRRLVDKHAQITIGDEVVHGRDDAVRTLEKKMREMKVEIEVDSVNVQGEKLTATLKVELDINGKPNTDTVVVQMRAENGKLKSAHYRVDPTTRRKVKS

(A)
[0.97, 0.601, -0.179]

src = the NTF2 design screens of Basanta et al. (2020)
